experiment: yeast display, Sf9 membrane polyspecificity reagent, FACS + sequencing; frameworks hold sequencing errors
measurement-name: polyreactivity (PSR sort gate)

Some solved entries appear below for comparison.
primary-sequence: QVQLVESGGGLVQAGGSLRLSCAASGRTVYKNTMGWYRQAPGKERELVAAISIRGGSTYYADSVKGRFTISRDNAKNTVYLQMNSLKPEDTAVYYCNVVYQKAARIVDFDYWGQGTQVTVSS
polyreactivity (PSR sort gate): high polyreactivity

primary-sequence: QVQLVESGGGLVQAGGSHRLSCAASGRILPGYAMGWYRPAPGKERELVAAITTGGSTYYADSVKGRFTISRDNAKNTVYLQMNSLKPEDTAVYYCAKLYSYVGWGGQFDYWGQGTQVTVSS
polyreactivity (PSR sort gate): low polyreactivity

primary-sequence: QVQLGESGGGLVQAGGSLRLSCAASGRIFSYNAMRWYRPAPGKERELVAGITSGGRTYYADSVKGRFTISRDNAKNTVYLQMNSLKPEDTAVYYCAARYVPARTRYYFWGQGSQVTVSS
polyreactivity (PSR sort gate): high polyreactivity

primary-sequence: QVQLVESGGGLVQAGGSLRLSCAASGRIFHYAMGWYRQAPGKERELVAGISKRGGSTYYADSVKGRFTISRDNAKNTVYLQMNSLKPEDTAVYYCAAGRAYDGTKHDYWGQGSQVTVSS
polyreactivity (PSR sort gate): high polyreactivity

primary-sequence: QVQLVESGGGLVQAGGSLRLSCAASGFTSGYNLMGWYRQAPGKERELVAAISWRGTSTYYADSVKGRFTISRDNAKNTVYLQMNSLKPEDTAVYYCAARQRWYWRGYDYWGQGTQVTVSS
polyreactivity (PSR sort gate): high polyreactivity

primary-sequence: QVQLVESGGGLVQAGGSLRFSCAASGSTFTAYVMGWYRQAPGKERELVAAISRSGGRTYYADSVKGRFTISRDNAKKTVYLQMNSLKPEDTAVYYCAARSGPLAYDYWGQGTQVTVSS
polyreactivity (PSR sort gate): high polyreactivity

primary-sequence: QVQLVESGGGLVQAGGSLRLSCAASGRTFRRYTMGWYRQAPGKERELVAAITSGGRTNYADSVKGRFTISRDNAKNTVYLQMNSLKPEDTAVYYCNAQNEIWRVTFSPFDRWGYDYWGQGTQVTVSS
polyreactivity (PSR sort gate): low polyreactivity

primary-sequence: QVQLVESGGGLVQAGGSLRLSCAPSGFTFGIYAMGWYRQAPGKERELLADINVSDGSTYYADSVKRRFTISRDNAKNTVYLQMNSLKPEDTAVYYSAAYVYDTIYTSYREYDYWGQGTQVTVST
polyreactivity (PSR sort gate): low polyreactivity

primary-sequence: QVQLVESGGALVQAGGSLRLSCAASGSIFIHYAMGWSRQAPGKERELVAAISRTGSTYYADSVKGRFTISRDNAKNTVYLQMNSLKPLDTAVYYCAKRISTRRYDFWGQGTQVTVSS
polyreactivity (PSR sort gate): low polyreactivity

primary-sequence: QVQLVESGGGLVQAGGSLRLSCAASGSTFAAYAMGWYRQAPGKERELVAAISGGRTYYADSVKGRFTISRDNAKNTVYLEMYSLKPEDTAVYYCAKRYFYYTAFNAYGYWGQGTQVTVSS
polyreactivity (PSR sort gate): high polyreactivity

Which value of polyreactivity (PSR sort gate) has been reported for QVQLVESGGGLVQAGGSLRLSCAASGSIFDPNAMGWYRQAPGKERELVAAITSGGGSTYYADSVKGRFTISRDNAKNTVYLEMNSLKPEDTAVYYCNKVFVLPYKFVAWFDYWGQGTQVTVSS in the records? low polyreactivity
